# Tested on: MAP3K1
# Settings: concentration: 1 μM, replicates: in singlicate; n = 1;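 note: KINOMEscan kinase panel screen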
Attribute Measured: %Inh (%)
Express your answer in %, writing the number without its unit.

Reference set (5 entries):
O=C(NC1CCN(c2ccnc(Nc3ccc(F)cc3)n2)C1)c1cc2ccccc2s1 (centres unmarked)    16
Cl.Cl.NCC(C(=O)Nc1cc(Br)c(-c2ccnc3[nH]ccc23)s1)c1ccccc1 (centres unmarked)    17
O=C(Nc1ccccc1F)NC1CCN(c2ccnc(Nc3ccc(F)cc3)n2)CC1    13
CC(C)c1nc(-c2cccc(NS(=O)(=O)c3c(F)cccc3F)c2F)c(-c2ccnc(Nc3ccc(N4CCOCC4)nc3)n2)s1    15
CC(=O)N1CCN(c2ccc(Nc3nccc(-c4sc(C(C)C)nc4-c4cccc(NS(=O)(=O)c5cccc(Cl)c5)c4)n3)cn2)CC1    12

Need %Inh of `Cc1ccc(S(=O)(=O)Nc2ccc(Nc3nccc(Nc4cccc5[nH]ncc45)n3)cc2)cc1` , thanks. 5

Need %Inh of `CNC(=O)c1ccccc1Nc1nc(Nc2ccc(N3CCOCC3)cc2)ncc1Cl.Cl` , thanks. 22

Need %Inh of NCCCC(NC(=O)c1cc(Br)c(-c2ccnc3[nH]ccc23)s1)c1ccccc1.O=C(O)C(F)(F)F.O=C(O)C(F)(F)F (centres unmarked) , thanks. 9

Need %Inh of `c1ccc(-c2n[nH]cc2Nc2ccnc3ccccc23)nc1` , thanks. 0

Need %Inh of `CN(c1ccc(NC(=O)Nc2cc(C(F)(F)F)ccc2F)cc1)c1ccnc(Nc2ccc(S(N)(=O)=O)cc2)n1` , thanks. 33

Need %Inh of `CSc1cccc2c(-c3ccncn3)c(-c3ccc(F)cc3)nn12` , thanks. 14

Need %Inh of `O=C(Nc1n[nH]c2cc(-c3ccoc3)ccc12)C1CC1` , thanks. 0

Need %Inh of `CC(C)(C)c1ccc2nccc(Nc3cccc(O)c3)c2c1` , thanks. 0

Need %Inh of `Cl.c1ccc(-c2ccc3c(Nc4ccc5[nH]ncc5c4)ccnc3c2)nc1` , thanks. 22

Need %Inh of `Cl.c1ccc(-c2ccc3c(Nc4ccc5[nH]ccc5c4)ccnc3c2)nc1` , thanks. 1

Need %Inh of `Nc1ncnc2c1nc(-c1ccccc1)n2-c1ccccc1` , thanks. 34

Need %Inh of `COc1cccc(-c2ccc3c(NC(=O)C4CC4)n[nH]c3n2)c1` , thanks. 35

* * *

# Tested on: PRKG2
# Settings: concentration: 1 μM, replicates: in singlicate; n = 1
Attribute Measured: %Inh (%)
Express your answer in %, writing the number without its unit.

Reference set (4 entries):
Nc1ncc(-c2ccc3nccc(-c4ccncc4)c3c2)cc1S(=O)(=O)N1CCOCC1    0
O=C(O)C(F)(F)F.O=C(O)C(F)(F)F.O=c1[nH]ccc2nc(N[C@@H]3CCCNC3)nc(Nc3ccc(S(=O)(=O)N4CCOCC4)cc3)c12    96.5
Cc1cccc(NC(=O)Nc2ccc(Oc3ncnc4ccn(C)c34)cc2)c1    0
COC(=O)Nc1nc2ccc(Oc3ccc(NC(=O)Nc4cc(C(F)(F)F)ccc4F)cc3)cc2n1C.Cl    5

Need %Inh of `CSc1cccc2c(-c3ccncn3)c(-c3ccc(F)cc3)nn12` , thanks. 0

Need %Inh of `Cc1ccc(C(=O)N2CC[C@@H](O)C2)cc1-n1c(C)cc(OCc2ccc(F)cc2F)c(Br)c1=O` , thanks. 0

Need %Inh of Cl.Cl.NCC(C(=O)Nc1cc(Br)c(-c2ccnc3[nH]ccc23)s1)c1ccccc1 (centres unmarked) , thanks. 86

Need %Inh of `Cl.NC(=O)c1cccc(Nc2nccc(Nc3ccc(Oc4c(Cl)cccc4Cl)c(Cl)c3)n2)c1` , thanks. 0

* * *

Let's look at some compounds and their measured %Inh.
# System: MLK2
# Settings: concentration: 1 μM, replicates: in singlicate; n = 1
Express your answer in %, writing the number without its unit.

Need %Inh of `CN(c1ccc(NC(=O)Nc2cc(C(F)(F)F)ccc2F)cc1)c1ccnc(Nc2ccc(S(N)(=O)=O)cc2)n1` , thanks. 34

Need %Inh of `C[C@@H](Oc1cc(-n2cnc3cc(-c4ccnc(NCCS(C)(=O)=O)c4)ccc32)sc1C(N)=O)c1ccccc1Cl` , thanks. 20

Need %Inh of `COC(=O)Nc1nc2ccc(Oc3ccc(NC(=O)Nc4cc(C(F)(F)F)ccc4F)cc3)cc2n1C.Cl` , thanks. 0

Need %Inh of `COc1ccc(CNC(=O)NC2CCN(c3ccnc(Nc4ccc(F)cc4)n3)CC2)cc1` , thanks. 0

Need %Inh of COc1cc(Nc2nccc(N3CCC(NC(=O)Nc4cccc(C(C)=O)c4)C3)n2)cc(OC)c1OC (centres unmarked) , thanks. 0

* * *

# Test system: PRKG1
# Settings: concentration: 1 μM, replicates: in singlicate; n = 1
Attribute Measured: %Inh (%)
Express your answer in %, writing the number without its unit.

Cc1ccc(F)c(C(=O)Nc2cccc(-c3nn4ccccc4c3-c3ccnc(Nc4cccc(F)c4)n3)c2)c1F    18
COc1ccc(Nc2nccc(N3CCC(NC(=O)Nc4cccc(OC)c4)C3)n2)cc1 (stereo not drawn)    0

We next turn to a different molecule, shown below.
Need %Inh of `COc1cc(Nc2nccc(-c3c(-c4cccc(NC(=O)c5c(F)cccc5F)c4)nn4ncccc34)n2)cc(OC)c1OC` , thanks. 24

* * *

Let's look at some compounds and their measured %Inh.
# System: PCTK2
# Construct: gene CDK17
# Settings: concentration: 1 μM, replicates: in singlicate; n = 1
Express your answer in %, writing the number without its unit.

Reference set (5 entries):
CCc1ccc(-c2ccc3c(c2)-c2c(cnn2C)S(=O)(=O)N3C)cc1    10
CCn1c(-c2nonc2N)nc2c(C#CC(C)(C)O)ncc(OCCCCN)c21.O=C(O)C(F)(F)F.O=C(O)C(F)(F)F    0
CC(C)c1nc(-c2cccc(NS(=O)(=O)c3c(F)cccc3F)c2F)c(-c2ccnc(Nc3ccc(N4CCOCC4)nc3)n2)s1    100
Cc1occc1-c1ncc(OC[C@@H](N)Cc2c[nH]c3ccccc23)cc1-c1ccc2[nH]nc(C)c2c1.O=C(O)C(F)(F)F    0
Nc1n[nH]c2cnc(-c3ccccc3)cc12    0

Need %Inh of `O=C(Nc1cccc(Oc2ccc3nc(NC(=O)C4CC4)cn3n2)c1)c1ccccc1C(F)(F)F` , thanks. 0

Need %Inh of `COC(=O)Nc1nc2cc(Oc3ccc(NC(=O)Nc4cc(C(F)(F)F)ccc4F)cn3)ccc2[nH]1.Cl.Cl` , thanks. 16

* * *

# Tested on: CHEK2
# Settings: concentration: 1 μM, replicates: in singlicate; n = 1
Let's look at some compounds and their measured %Inh.
Express your answer in %, writing the number without its unit.

CN1CCN(CCCNc2nccc(-c3c(-c4ccc(F)cc4)nn4cc(C(F)(F)F)ccc34)n2)CC1 [GW621581]    0
COC(=O)Nc1nc2cc(Oc3ccc(NC(=O)Nc4cc(C(F)(F)F)ccc4F)cn3)ccc2[nH]1.Cl.Cl [GW681170]    24
Nc1ncc(-c2cccnc2)c2scc(-c3ccc4c(c3)CCN4C(=O)Cc3ccccc3)c12 [GSK683281]    0
Cn1cc(-c2ccc3c(c2)CCN3C(=O)Cc2cccc(Cl)c2)c2c(N)ncnc21 [GSK2606590]    0
c1ccc(Oc2ccc(Nc3ccnc4cc(-c5ccc(CNCCN6CCOCC6)o5)ccc34)cc2)nc1 [GW567145]    90.6

Need %Inh of O=C(Nc1cccc(-c2nn3ccccc3c2-c2ccnc(Nc3cccc(C(F)(F)F)c3)n2)c1)c1c(F)cccc1F [GSK292658] , thanks. 0

Need %Inh of Cc1ccc(C)c(NC(=O)NC2CCN(c3ccnc(Nc4ccc(F)cc4)n3)C2)c1 (stereo not shown) [GSK1379720] , thanks. 0

Need %Inh of COc1cc(Nc2nccc(N3CCC(NC(=O)c4cc5ccccc5s4)C3)n2)cc(OC)c1OC (stereo not shown) [GSK1379760] , thanks. 16

Need %Inh of COc1ccc(Nc2nccc(N3CCC(NC(=O)Nc4cccc(OC)c4)C3)n2)cc1 (stereo not shown) [GSK1379742] , thanks. 0

Need %Inh of CCn1c(-c2nonc2N)nc2c(C#CC(C)(C)O)nc(OC[C@H](N)c3ccccc3)cc21 [GSK943949] , thanks. 0

Need %Inh of Nc1n[nH]c2cnc(-c3ccccc3)cc12 [SB-642124] , thanks. 0

Need %Inh of O=C(Nc1cccc(-c2nn3ncccc3c2-c2ccnc(Nc3ccccc3)n2)c1)c1c(F)cccc1F [GSK198271] , thanks. 0

Need %Inh of COc1cccc(-c2ccc3c(NC(=O)C4CC4)n[nH]c3n2)c1 [SB-710903] , thanks. 0

Need %Inh of Cl.c1ccc(-c2ccc3c(Nc4ccc5[nH]ccc5c4)ccnc3c2)nc1 [GW440138] , thanks. 34

Need %Inh of Clc1ccc(-c2nn3ncccc3c2-c2ccnc(Nc3ccc4c(c3)OCCO4)n2)cc1 [GW829116] , thanks. 2

Need %Inh of CC(=O)N1CCN(c2ccc(Nc3nccc(-c4sc(C(C)C)nc4-c4cccc(NS(=O)(=O)c5cccc(Cl)c5)c4)n3)cn2)CC1 [GSK1660437] , thanks. 0
